Tested on: ARID1A-KO HCT116 cells
assaySummary: Drug library screen, cell viability (CellTiter-Glo)
Format: cell-based, human
measurementContext: HCT116 ARID1A-KO; 10 μM for 5 days; relative to cells treated with solvent (DMSO)
Entries whose Cell viability, KO is below 100 take satisfied; entries at or above 100 take not satisfied.

[
  {
    "molecule": "COC(=O)CNC(=O)C(=O)OC [Dimethyloxalylglycine]",
    "classAssignment": "not satisfied"
  },
  {
    "molecule": "CC(C)C(C(=O)O)N1C(=O)/C(=C\\c2ccc(Br)cc2)SC1=S (stereo not drawn) [BH3I-1]",
    "classAssignment": "not satisfied"
  },
  {
    "molecule": "O=C(Nc1cccc2cccnc12)c1ccc(N2C(=O)[C@@H]3[C@H](C2=O)[C@@H]2C=C[C@H]3C2)cc1 [IWR-1-endo]",
    "classAssignment": "satisfied"
  },
  {
    "molecule": "Cc1nc2c(O)cccc2c(=O)[nH]1 [NU1025]",
    "classAssignment": "not satisfied"
  },
  {
    "molecule": "COc1cc(/C=C(\\C#N)C(N)=O)cc(CSc2nc3ccccc3s2)c1O [AG825]",
    "classAssignment": "satisfied"
  },
  {
    "molecule": "O=c1[nH]c2ccccc2n1C1CCN(Cc2ccc(-c3nc4cc5[nH]cnc5cc4nc3-c3ccccc3)cc2)CC1",
    "classAssignment": "not satisfied"
  },
  {
    "molecule": "CC(C)Cn1c(=O)n(C)c(=O)c2[nH]cnc21 [IBMX]",
    "classAssignment": "not satisfied"
  },
  {
    "molecule": "CC(C)(C)c1cc(C=C(C#N)C#N)cc(Br)c1O [AG1024]",
    "classAssignment": "not satisfied"
  },
  {
    "molecule": "Oc1ccc(-c2nc(-c3ccc(F)cc3)c(-c3ccncc3)[nH]2)cc1 [SB202190]",
    "classAssignment": "not satisfied"
  },
  {
    "molecule": "O=C1NC(=O)c2c1c1c3ccccc3n3c1c1c2c2ccccc2n1C1CCC3O1 [SB 218078]",
    "classAssignment": "not satisfied"
  },
  {
    "molecule": "O=c1[nH]cc(F)c(=O)[nH]1 [5-FU]",
    "classAssignment": "satisfied"
  },
  {
    "molecule": "CNC(=N)NCCC[C@H](N)C(=O)O [L-NMMA]",
    "classAssignment": "not satisfied"
  },
  {
    "molecule": "O=C(Nc1ccc2c(O)cc(S(=O)(=O)O)cc2c1)Nc1ccc2c(O)cc(S(=O)(=O)O)cc2c1 [AMI-1]",
    "classAssignment": "satisfied"
  },
  {
    "molecule": "N#CCCc1ccc2c(c1)-c1[nH]c3ccc([N+](=O)[O-])cc3c1CC(=O)N2 [Alsterpaullone, 2-cyanoethyl]",
    "classAssignment": "satisfied"
  },
  {
    "molecule": "Cc1cccc(-c2nn3c(c2-c2ccnc4ccc(C(N)=O)cc24)CCC3)n1 [LY2157299]",
    "classAssignment": "not satisfied"
  },
  {
    "molecule": "NCCCC(N)(C(=O)O)C(F)F (stereo not drawn) [DFMO]",
    "classAssignment": "not satisfied"
  },
  {
    "molecule": "O=CN1CCN(c2ccc(/C=C3\\C(=O)Nc4ccccc43)cc2)CC1 [SU4984]",
    "classAssignment": "not satisfied"
  },
  {
    "molecule": "Cc1nc(N)sc1-c1ccnc(Nc2cccc([N+](=O)[O-])c2)n1 [Cdk 2/9 inhibitor]",
    "classAssignment": "satisfied"
  },
  {
    "molecule": "C[S+]([O-])c1ccc(-c2nc(-c3ccc(F)cc3)c(-c3ccncc3)[nH]2)cc1 (stereo not drawn) [SB 203580]",
    "classAssignment": "not satisfied"
  },
  {
    "molecule": "COc1ccc2c(c1)c1c3c(c4c5ccccc5n(C)c4c1n2CC(O)CN(C)C)C(=O)NC3=O (stereo not drawn) [Go7874]",
    "classAssignment": "satisfied"
  },
  {
    "molecule": "O=C1Nc2ccc(I)cc2/C1=C/c1cc(Br)c(O)c(Br)c1 [RAF1 kinase inhibitor I]",
    "classAssignment": "not satisfied"
  },
  {
    "molecule": "N#C/C(=C\\c1ccc2oc(=O)[nH]c2c1)C(=O)c1ccc(O)c(O)c1 [AGL 2263]",
    "classAssignment": "not satisfied"
  },
  {
    "molecule": "Brc1c(Br)c(Br)c2n[nH]nc2c1Br [TBB]",
    "classAssignment": "not satisfied"
  },
  {
    "molecule": "Cc1ccc2nc(NC(=O)CSc3nc4c(c(=O)n3-c3ccccc3)SCC4)sc2c1 [IWP-2]",
    "classAssignment": "satisfied"
  },
  {
    "molecule": "CCNCCCNCCCCNCCCNCC [N1,N12-Diethylspermine (BESpm), N1,N12-Diethylspermine]",
    "classAssignment": "satisfied"
  },
  {
    "molecule": "O=S(=O)(O)c1cc(N=C=S)ccc1C=Cc1ccc(N=C=S)cc1S(=O)(=O)O [DIDS]",
    "classAssignment": "not satisfied"
  },
  {
    "molecule": "O=C1Nc2cc(Br)ccc2/C1=C1/Nc2ccccc2/C1=N\\O [BIO]",
    "classAssignment": "not satisfied"
  },
  {
    "molecule": "O=c1onc2cnc3ccccc3n12 [ODQ]",
    "classAssignment": "satisfied"
  },
  {
    "molecule": "Nc1ncnc2c1nc(Sc1ccc(Cl)cc1)n2[C@@H]1O[C@@H]2COP(O)(=S)O[C@H]2[C@H]1O (stereo partly drawn) [Rp-8-CPT-cOMPS]",
    "classAssignment": "not satisfied"
  },
  {
    "molecule": "CCCNC(=O)[C@H]1O[C@@H]1C(=O)N[C@H](C(=O)N1CCC[C@H]1C(=O)O)[C@@H](C)CC [CA-074]",
    "classAssignment": "not satisfied"
  },
  {
    "molecule": "Cc1cccc(-c2nn(C(=S)Nc3ccccc3)cc2-c2ccnc3ccccc23)n1 [A83-01]",
    "classAssignment": "not satisfied"
  },
  {
    "molecule": "CC(C)(C)n1nc(-c2ccc(Cl)cc2)c2c(N)ncnc21 [PP2]",
    "classAssignment": "not satisfied"
  },
  {
    "molecule": "Nc1nc(Nc2ccc(S(N)(=O)=O)cc2)nn1C(=S)Nc1c(F)cccc1F [Cdk½ inhibitor III]",
    "classAssignment": "satisfied"
  },
  {
    "molecule": "Cc1[nH]c(/C=C2\\C(=O)Nc3ccc(S(=O)(=O)N(C)c4cccc(Cl)c4)cc32)c(C)c1C(=O)N1CCN(C)CC1 [SU11274]",
    "classAssignment": "satisfied"
  }
]
